Target: NAMPT (Homo sapiens, UniProt P43490)
Construct: His tag; host or cells: E. coli
Sequence (P43490 whole entry): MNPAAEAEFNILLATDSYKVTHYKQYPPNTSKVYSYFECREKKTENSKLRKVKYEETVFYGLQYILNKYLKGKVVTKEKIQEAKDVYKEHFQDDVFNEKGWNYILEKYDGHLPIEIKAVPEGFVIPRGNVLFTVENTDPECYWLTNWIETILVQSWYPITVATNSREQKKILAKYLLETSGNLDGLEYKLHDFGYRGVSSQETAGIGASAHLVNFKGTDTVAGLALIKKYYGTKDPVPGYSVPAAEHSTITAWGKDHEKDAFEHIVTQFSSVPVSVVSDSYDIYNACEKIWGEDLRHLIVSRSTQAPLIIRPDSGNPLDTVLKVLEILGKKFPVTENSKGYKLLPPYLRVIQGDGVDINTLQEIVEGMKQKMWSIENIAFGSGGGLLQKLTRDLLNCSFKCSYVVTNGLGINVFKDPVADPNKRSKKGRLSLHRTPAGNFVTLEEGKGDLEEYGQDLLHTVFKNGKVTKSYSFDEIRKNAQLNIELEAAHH
Test: Biochemical inhibition assay: NAMPT enzymatic reaction, NMN quantified by mass spectrometry
Conditions: NAMPT enzymatic assay; read-out: Biochem IC50
Catalogue of compounds with associated IC50
Quick note: give the figure in nM, leave out the unit.

Completed entries (count: 3):
- smiles record: "O=C(NCc1ccc(S(=O)(=O)c2cc(O)ccc2OC(F)(F)F)cc1)c1cnc2[nH]ncc2c1"
  value observed: 21.9
- smiles record: "O=C(NCc1ccc(S(=O)(=O)c2ccc(C(F)(F)F)c(Cl)c2)cc1)c1cnc2nccn2c1"
  value observed: 2.8
- smiles record: "O=C(NCc1ccc(S(=O)(=O)c2ccccc2C(F)(F)F)cc1)c1ccc2nccn2c1"
  value observed: 34.1

Would you mind telling me what IC50 value was observed for `CCCn1cc(S(=O)(=O)c2ccc(CNC(=O)c3ccc4nccn4c3)cc2)cn1` ?
4.9

Would you mind telling me what IC50 value was observed for `O=C(NCc1ccc(S(=O)(=O)c2ccc(Cl)cc2C(F)(F)F)cc1)c1cc2cnccc2[nH]1` ?
42.2

Would you mind telling me what IC50 value was observed for `O=C(NCc1ccc(S(=O)(=O)c2ccc(-n3cccn3)cc2F)cc1)c1cc2ccncc2o1` ?
18.4

Would you mind telling me what IC50 value was observed for `O=C(NCc1ccc(S(=O)(=O)c2ccc3nc(C(F)(F)F)cn3c2)cc1)c1cc2ccncc2s1` ?
3.1

Would you mind telling me what IC50 value was observed for `O=C(NCc1ccc(S(=O)(=O)c2ccc3ncccc3c2)cc1)c1ccc2nccn2c1` ?
5.16

Would you mind telling me what IC50 value was observed for `COc1cc(C(F)(F)F)ccc1S(=O)(=O)c1ccc(CNC(=O)c2ccc3nccn3c2)cc1` ?
26.4
